# target-system: Tyrosyl-DNA phosphodiesterase 2 (Homo sapiens)
# Sequence (O95551 whole entry): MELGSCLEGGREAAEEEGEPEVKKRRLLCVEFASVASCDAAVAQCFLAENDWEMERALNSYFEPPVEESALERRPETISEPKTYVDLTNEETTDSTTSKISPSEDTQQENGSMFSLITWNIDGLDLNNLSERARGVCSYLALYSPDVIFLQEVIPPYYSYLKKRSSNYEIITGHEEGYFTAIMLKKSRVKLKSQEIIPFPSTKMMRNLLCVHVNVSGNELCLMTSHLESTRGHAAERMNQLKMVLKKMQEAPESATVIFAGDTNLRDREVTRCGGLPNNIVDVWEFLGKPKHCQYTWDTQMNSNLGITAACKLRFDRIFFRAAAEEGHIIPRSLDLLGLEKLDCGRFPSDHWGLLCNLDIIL
# method: Recombinant TDP2 Assay
# condition-label: pH 7.5
reported-endpoint: IC50 (µM)
Response body: numeric value in µM, unit text excluded.

Please give measured IC50 of the following entry: O=c1nc2n(-c3ccc(O)cc3)c3cc(Cl)ccc3cc-2c(=O)[nH]1
3.9

* * *

# target-system: Tyrosyl-DNA phosphodiesterase 2 [E242G,S244A,Q278R,I281T,K282R,R316G,P318T,Y321C] (Mus musculus, UniProt Q9JJX7, E242G/I281T/K282R/P318T/Q278R/R316G/S244A/Y321C)
# Sequence (Q9JJX7 whole entry E242G/S244A/Q278R/I281T/K282R/R316G/P318T/Y321C): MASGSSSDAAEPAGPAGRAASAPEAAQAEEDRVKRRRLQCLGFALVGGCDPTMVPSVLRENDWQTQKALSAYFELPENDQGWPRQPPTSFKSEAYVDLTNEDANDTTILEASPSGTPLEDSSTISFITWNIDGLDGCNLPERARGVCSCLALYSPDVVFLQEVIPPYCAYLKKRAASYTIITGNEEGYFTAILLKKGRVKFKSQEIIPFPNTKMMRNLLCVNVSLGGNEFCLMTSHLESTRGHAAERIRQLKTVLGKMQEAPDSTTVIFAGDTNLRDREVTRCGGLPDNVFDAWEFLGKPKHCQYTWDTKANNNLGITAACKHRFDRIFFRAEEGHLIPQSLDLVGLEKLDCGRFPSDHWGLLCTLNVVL
# method: Recombinant TDP2 Assay
# condition-label: pH 7.5
reported-endpoint: pIC50
Here pIC50 is given on a logarithmic scale as minus log10 of the concentration in mol/L.

Please give measured pIC50 of the following entry: O=c1nc2n(-c3ccc(O)cc3)c3cc(Cl)ccc3cc-2c(=O)[nH]1
4.46

Please give measured pIC50 of the following entry: N#Cc1ccc2cc3c(=O)[nH]c(=O)nc-3n(-c3ccc(O)cc3)c2c1
5.96
